Measured values drawn from ChEMBL document CHEMBL4680238 for this set.

assay: Apparent clearance in Sprague-Dawley rat at 5 mg/kg, iv measured up to 72 hrs by LC-MS/MS analysis; format: ADME, organism-based; conditions: Sprague-Dawley, in vivo, read-out: CL(app) (converted)
Residues, ends and D or L forms follow the SMILES beside them. *: point of attachment. X1 = CC(=O)O[C@@]12CO[C@@H]1C[C@H](O)[C@@]1(C)C(=O)[C@H](O)C3=C(C)[C@@H](OC(=O)[C@H](OC(=O)OCc4ccc(N*)cc4)[C@@H](NC(=O)OC(C)(C)C)c4ccccc4)C[C@@](O)([C@@H](OC(=O)c4ccccc4)[C@H]21)C3(C)C
readout-kind: clearance (mL/min/kg)

>  <molecule>
CC[C@H](C)[C@H](NC(=O)CNC(=O)[C@H](CCC(N)=O)NC(=O)[C@@H]1CCCN1C(=O)CNC(C)=O)C(=O)N[C@@H](C)C(=O)N[C@@H](CCSC)C(=O)N[C@@H](CCC(N)=O)C(=O)N[C@@H](CC(C)C)C(=O)Nc1ccc(COC(=O)O[C@@H](C(=O)O[C@H]2C[C@@]3(O)[C@@H](OC(=O)c4ccccc4)[C@@H]4[C@]5(OC(C)=O)CO[C@@H]5C[C@H](O)[C@@]4(C)C(=O)[C@H](O)C(=C2C)C3(C)C)[C@@H](NC(=O)OC(C)(C)C)c2ccccc2)cc1 (Ac-GPQGIAMQL-X1)

>  <readout-kind>
clearance

>  <measurement>
9.33

$$$$

----------
assay: Half life in Sprague-Dawley rat plasma t 50 ug/ml up to 72 hrs by RP-HPLC analysis; format: ADME, cell-free; settings: dose 50 µg/ml
Residues, ends and D or L forms follow the SMILES beside them. *: point of attachment. X2 = CC(=O)O[C@@]12CO[C@@H]1C[C@H](O)[C@@]1(C)C(=O)[C@H](O)C3=C(C)[C@@H](OC(=O)[C@H](OC(=O)OCc4ccc(N*)cc4)[C@@H](NC(=O)OC(C)(C)C(F)(F)F)c4ccccc4)C[C@@](O)([C@@H](OC(=O)c4cccc(F)c4)[C@H]21)C3(C)C; X1 = CC(=O)O[C@@]12CO[C@@H]1C[C@H](O)[C@@]1(C)C(=O)[C@H](O)C3=C(C)[C@@H](OC(=O)[C@H](OC(=O)OCc4ccc(N*)cc4)[C@@H](NC(=O)OC(C)(C)C)c4ccccc4)C[C@@](O)([C@@H](OC(=O)c4ccccc4)[C@H]21)C3(C)C
Measured half-life at 50 ug/ml values are reported for all entries that follow.
readout-kind: half-life at 50 ug/ml

>  <molecule>
CC[C@H](C)[C@H](NC(=O)CNC(=O)[C@H](CCC(N)=O)NC(=O)[C@@H]1CCCN1C(=O)CNC(C)=O)C(=O)N[C@@H](C)C(=O)N[C@@H](CCSC)C(=O)N[C@@H](CCC(N)=O)C(=O)N[C@@H](CC(C)C)C(=O)Nc1ccc(COC(=O)O[C@@H](C(=O)O[C@H]2C[C@@]3(O)[C@@H](OC(=O)c4cccc(F)c4)[C@@H]4[C@]5(OC(C)=O)CO[C@@H]5C[C@H](O)[C@@]4(C)C(=O)[C@H](O)C(=C2C)C3(C)C)[C@@H](NC(=O)OC(C)(C)C(F)(F)F)c2ccccc2)cc1 (Ac-GPQGIAMQL-X2)

>  <readout-kind>
half-life at 50 ug/ml

>  <measurement>
43.8 h

$$$$
>  <molecule>
CC[C@H](C)[C@H](NC(=O)[C@H](C)NC(=O)[C@H](CCC(N)=O)NC(=O)[C@@H]1CCCN1C(=O)CNC(C)=O)C(=O)N[C@@H](C)C(=O)NCC(=O)N[C@@H](CCC(N)=O)C(=O)N[C@@H](CC(C)C)C(=O)Nc1ccc(COC(=O)O[C@@H](C(=O)O[C@H]2C[C@@]3(O)[C@@H](OC(=O)c4ccccc4)[C@@H]4[C@]5(OC(C)=O)CO[C@@H]5C[C@H](O)[C@@]4(C)C(=O)[C@H](O)C(=C2C)C3(C)C)[C@@H](NC(=O)OC(C)(C)C)c2ccccc2)cc1 (Ac-GPQAIAGQL-X1)

>  <readout-kind>
half-life at 50 ug/ml

>  <measurement>
12 h

$$$$
